B1: tRNA (parent)
chain: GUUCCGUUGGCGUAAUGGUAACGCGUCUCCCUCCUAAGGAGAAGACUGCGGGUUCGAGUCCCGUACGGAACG

- Variants of: B1
- protocol_notes: yeast fitness relative to wild type (ratio to wild type); higher = fitter; tRNA-Arg(CCU), competitive growth, 37 C, YPD
Fewer inactive variants are shown than the library holds.
measured_attribute: yeast fitness
Form field (numeric): enter value without unit.

Look over these answered cases.
item_sequence: GUUCCGUUGGGGUAAAGGUAACCCGUCUCUCUCUUAAGGAGAAGACUGCGGGUUCGAGUCCCGUACGGUACG [C11G U16A G23C C30U C34U A69U]
measured_attribute: yeast fitness
measured_value: 0.844
--
item_sequence: GUUCUGUUGGCGUAAUGGUAACACCUCUCCCUCCUAAGGAGAAGACUGCGGGUUCGAGUCCCGUACGGAACG [C5U G23A G25C]
measured_attribute: yeast fitness
measured_value: 0.65
--
item_sequence: GUUCCGUUGGCGUAAUGGUAACGCGUCUCCCCCCUAAGGAGAAGACUGCGGCUUCGAGUCCCGUACGGAACG [U32C G52C]
measured_attribute: yeast fitness
measured_value: 0.602
--
item_sequence: GUUCCGUUGGCGUAAUGGUAACGCGUCUCCCUCCUAAGGAUAAGAAUGCGGGUUCGAGUCCCGUACGGAUCG [G41U C46A A70U]
measured_attribute: yeast fitness
measured_value: 0.632
--
item_sequence: GUUCCGUUGGGGUAAUGGUAGCGCGUCUCCGUCCUAAGGAGAAGACUGCGGGUUCGAGUCCCGUUCGGAACG [C11G A21G C31G A65U]
measured_attribute: yeast fitness
measured_value: 0.561

QUERY: Given GUUCCGUUGGCGUAAUGGUAACGCGUCUCCCUCCUAAGGAGAAGACUCCAGGUUCGAGUCCCGUACGGAACG [G48C G50A] , state its recorded yeast fitness.
RESULT: 0.651

QUERY: Look up yeast fitness: GUUCCGUUGGCGUAAUGGUAACGCGUCUCCCUCCUACGGAGAAGACUGCGGGUUCGAGUCCCGUACGGUACG [A37C A69U]
RESULT: 1.03

QUERY: Recorded yeast fitness of GUUCCGUUGGUAUAAUGGUAACGCGUCUCCCUCCUAAGGAGAACAUUGCGGGUUCGAGUCCCGUACGGAACG [C11U G12A G44C C46U] , please.
RESULT: 0.575

QUERY: Which yeast fitness is listed for GUUCCGUUGGCGCAAUGGUAACGCGUCUCCCUCCUAAGGAGAAGACUGCGGGUUCGUGACCCGUACGGGACG [U13C A57U U59A A69G] ?
RESULT: 0.561

QUERY: Can you look up the measured yeast fitness of GUUCCGUUGGCGUAAUGGUACCGCGUCUCCCUCCUAAGGAGAAGACUGCGGGUUCGACUCCCGUACGGAACG [A21C G58C] for me?
RESULT: 0.84
